These entries and their values trace back to the supplement of paper PMC8092582.

Could you please report measured cell viability for the items listed next?
# Tested on: HeLa
# assay_method_text: cell viability (CellTiter-Glo) relative to median of lowest-dilution wells of all drugs (fraction); higher = more viable cells
# setup_conditions: drug concentration (unit not stated): 3.33; genotype: control (DDX11 wild type)
Counter-ions that a name gives are not always drawn.

Worked cases, answers included:
molecule: O=c1[nH]cc(F)c(=O)[nH]1 [Adrucil (Fluorouracil)]
cell viability: 1.02

molecule: Nc1nc(F)nc2c1ncn2[C@@H]1O[C@H](COP(=O)(O)O)[C@@H](O)[C@@H]1O [Fludarabine Phosphate (Fludara)]
cell viability: 1.15

molecule: CC(C)(C)Cn1c(N)nc2ccc(-c3[nH]c(C(C)(C)C)nc3-c3ccc(F)cc3)nc21
cell viability: 1.06

molecule: CC[C@@]1(O)C(=O)OCc2c1cc1n(c2=O)Cc2cc3c(CN(C)C)c(O)ccc3nc2-1 [Topotecan HCl]
cell viability: 0.0265

molecule: Nc1cc(C(F)(F)F)c(-c2cc(N3CCOCC3)nc(N3CCOCC3)n2)cn1 [Buparlisib (BKM-120)]
cell viability: 0.247

Batch: cell viability for all items listed.
1. Nc1nc(Cl)nc2c1ncn2[C@H]1C[C@H](O)[C@@H](CO)O1 [Cladribine]
2. C[C@@H](Nc1cc(F)cc(F)c1)c1cc(C(=O)N(C)C)cc2c(=O)cc(N3CCOCC3)oc12 [AZD8186]
3. O=C(Nc1c[nH]nc1-c1nc2ccc(CN3CCOCC3)cc2[nH]1)NC1CC1 [AT9283]
4. Nc1ncn([C@H]2C[C@H](O)[C@@H](CO)O2)c(=O)n1 [Decitabine]
5. CC[C@H](CO)Nc1nc(NCc2ccccc2)c2ncn(C(C)C)c2n1 [Seliciclib (Roscovitine)]
6. C=CCn1c(=O)c2cnc(Nc3ccc(N4CCN(C)CC4)cc3)nc2n1-c1cccc(C(C)(C)O)n1 [AZD1775]
7. CC(=O)O[C@H]1C(=O)[C@@]2(C)[C@H]([C@H](OC(=O)c3ccccc3)[C@]3(O)C[C@H](OC(=O)[C@H](O)[C@@H](NC(=O)c4ccccc4)c4ccccc4)C(C)=C1C3(C)C)[C@]1(OC(C)=O)CO[C@@H]1C[C@@H]2O [Paclitaxel (Taxol)]
8. C[C@@]1(CO)[C@H](O)CC[C@@]2(C)[C@H]1CC[C@H]1C[C@@H]3C[C@@]12CC[C@]3(O)CO [Aphidicolin]

[0.103, 0.887, 0.504, 1.1, 0.994, 0.288, 0.139, 0.523]

###

# Tested on: HeLa
# assay_method_text: cell viability (CellTiter-Glo) relative to median of lowest-dilution wells of all drugs (fraction); higher = more viable cells
# setup_conditions: drug concentration (unit not stated): 1.11; genotype: control (DDX11 wild type)
Decide using cell viability alone. Strictly below 0.8: Satisfied. Equal to or above 0.8: Not satisfied.

compound: COc1cc2c(cc1O)CCN[C@]21CS[C@@H]2c3c(OC(C)=O)c(C)c4c(c3[C@H](COC1=O)N1[C@@H]2[C@H]2c3c(cc(C)c(OC)c3O)C[C@@H]([C@@H]1O)N2C)OCO4
experimental_system: HeLa
class_assignment: Not satisfied

Criterion: cell viability strictly below 0.8. Is it met by NC(=O)Nc1cc(-c2cccc(F)c2)sc1C(=O)N[C@H]1CCCNC1 ? Satisfied

###

# System: HeLa
# assay_method_text: cell viability (CellTiter-Glo) relative to median of lowest-dilution wells of all drugs (fraction); higher = more viable cells
# setup_conditions: drug concentration (unit not stated): 0.12; genotype: control (DDX11 wild type)
Counter-ions that a name gives are not always drawn.
metric_name: cell viability
Answers are plain numbers.

Worked cases, answers included:
compound: O=c1[nH]c(=O)n(C2CCCO2)cc1F (stereo not drawn)
cell viability: 1.01
--
compound: O=C(CCCCCCC(=O)Nc1ccccc1)NO [Vorinostat (SAHA)]
cell viability: 0.971
--
compound: O=c1cc(N2CCOCC2)oc2c(-c3cccc4c3sc3ccccc34)cccc12
cell viability: 0.963
--
compound: CCc1cnn2c(NCc3ccc[n+]([O-])c3)cc(N3CCCC[C@H]3CCO)nc12
cell viability: 0.239

Batch: cell viability for all items listed.
1. O=C1c2c(O)ccc(O)c2C(=O)c2c(NCCNCCO)ccc(NCCNCCO)c21 [Mitoxantrone Hydrochloride]
2. CC1(C)CCC(c2ccc(Cl)cc2)=C(CN2CCN(c3ccc(C(=O)NS(=O)(=O)c4ccc(N[C@H](CCN5CCOCC5)CSc5ccccc5)c(S(=O)(=O)C(F)(F)F)c4)cc3)CC2)C1
3. O=c1[nH]c(=O)n([C@H]2C[C@H](O)[C@@H](CO)O2)cc1F
4. Nc1nc(F)nc2c1ncn2[C@@H]1O[C@H](COP(=O)(O)O)[C@@H](O)[C@@H]1O [Fludarabine Phosphate (Fludara)]

1: 0.858; 2: 1.02; 3: 0.998; 4: 1.04

###

# System: HeLa
# assay_method_text: cell viability (CellTiter-Glo) relative to median of lowest-dilution wells of all drugs (fraction); higher = more viable cells
# setup_conditions: drug concentration (unit not stated): 0.37; genotype: DDX11 knockout
Decide using cell viability alone. Strictly below 0.9: 1. Equal to or above 0.9: -1.

molecule: C[C@@H]1COCCN1c1cc(C2([S@](C)(=N)=O)CC2)nc(-c2cc[nH]c3nccc2-3)n1
class_assignment: -1

molecule: Nc1nc(Cl)nc2c1ncn2[C@H]1C[C@H](O)[C@@H](CO)O1
class_assignment: -1

molecule: CN1CC[C@H](c2c(O)cc(O)c3c(=O)cc(-c4ccccc4Cl)oc23)[C@H](O)C1
class_assignment: 1

molecule: O=c1[nH]c(=O)n([C@H]2C[C@H](O)[C@@H](CO)O2)cc1F
class_assignment: -1

molecule: O=c1[nH]c(=O)n(C2CCCO2)cc1F (stereo not drawn)
class_assignment: -1

Criterion: cell viability strictly below 0.9. Is it met by CC(C)(C)Cn1c(N)nc2ccc(-c3[nH]c(C(C)(C)C)nc3-c3ccc(F)cc3)nc21 ? -1

###

# System: HeLa
# assay_method_text: cell viability (CellTiter-Glo) relative to median of lowest-dilution wells of all drugs (fraction); higher = more viable cells
# setup_conditions: drug concentration (unit not stated): 0.37; genotype: DDX11 knockout
Counter-ions that a name gives are not always drawn.
Decide using cell viability alone. Strictly below 0.6: True. Equal to or above 0.6: False.

Past entries and their recorded results:
compound: COCC[n+]1c2c(n(Cc3cnccn3)c1C)C(=O)c1ccccc1C2=O [YM155 (Sepantronium bromide)]
experimental_system: HeLa
class_assignment: True
--
compound: COC1=CC(c2cc3ccccc3[nH]2)=N/C1=C\c1[nH]c(C)cc1C [Obatoclax mesylate]
experimental_system: HeLa
class_assignment: True
--
compound: CC(C)C[C@H](NC(=O)[C@H](Cc1ccccc1)NC(=O)c1cnccn1)B(O)O
experimental_system: HeLa
class_assignment: True
--
compound: O=C(Nc1c[nH]nc1-c1nc2ccc(CN3CCOCC3)cc2[nH]1)NC1CC1
experimental_system: HeLa
class_assignment: False
--
compound: NC(=O)c1ccc(I)c([N+](=O)[O-])c1
experimental_system: HeLa
class_assignment: False

Criterion: cell viability strictly below 0.6. Is it met by O=C1c2c(O)ccc(O)c2C(=O)c2c(NCCNCCO)ccc(NCCNCCO)c21 [Mitoxantrone Hydrochloride] ? True

Criterion: cell viability strictly below 0.6. Is it met by O=c1cc(N2CCOCC2)oc2c(-c3cccc4c3sc3ccccc34)cccc12 ? False

Criterion: cell viability strictly below 0.6. Is it met by O=C(CCCCCCC(=O)Nc1ccccc1)NO [Vorinostat (SAHA)] ? False

Criterion: cell viability strictly below 0.6. Is it met by O=C(O)CCCc1ccc(N(CCCl)CCCl)cc1 ? False

###

# Test system: HeLa
# assay_method_text: cell viability (CellTiter-Glo) relative to median of lowest-dilution wells of all drugs (fraction); higher = more viable cells
# setup_conditions: drug concentration (unit not stated): 1.11; genotype: control (DDX11 wild type)
Structures can show the parent of a compound that is named as a salt.
Could you please report measured cell viability for the items listed next?
Numbers only.

Worked cases, answers included:
molecule: Nc1ncn([C@H]2C[C@H](O)[C@@H](CO)O2)c(=O)n1 [Decitabine]
cell viability: 1.05

molecule: CCS(=O)(=O)Nc1ccc2c(c1)/C(=C(/Nc1ccc(CN3CCCCC3)cc1)c1ccccc1)C(=O)N2 [Hesperadin]
cell viability: 0.838

molecule: CC[C@H](CO)Nc1nc(NCc2ccccc2)c2ncn(C(C)C)c2n1 [Seliciclib (Roscovitine)]
cell viability: 1

molecule: Nc1nc(Cl)nc2c1ncn2[C@@H]1O[C@H](CO)[C@@H](O)[C@@H]1F [Clofarabine]
cell viability: 0.0535

molecule: CCCCCCNC(=O)n1cc(F)c(=O)[nH]c1=O [Carmofur]
cell viability: 1.07

Batch: cell viability for all items listed.
1. Nc1ccn([C@@H]2O[C@H](CO)[C@@H](O)C2(F)F)c(=O)n1 [Gemcitabine HCl (Gemzar)]
2. COc1cc([C@@H]2c3cc4c(cc3[C@@H](O[C@@H]3O[C@@H]5CO[C@@H](C)O[C@H]5[C@H](O)[C@H]3O)[C@H]3COC(=O)[C@H]23)OCO4)cc(OC)c1O [Etoposide (VP-16)]
3. CC(=O)Nc1cccc(-n2c(=O)n(C3CC3)c(=O)c3c(Nc4ccc(I)cc4F)n(C)c(=O)c(C)c32)c1 [Trametinib]
4. O=C(O)C1(C(=O)O)CCC1.[NH2-].[NH2-].[Pt+2] [Carboplatin]

0.0514
0.842
0.952
1.05

Batch: cell viability for all items listed.
1. O=C(CCCCCCC(=O)Nc1ccccc1)NO [Vorinostat (SAHA)]
2. Nc1cc(C(F)(F)F)c(-c2cc(N3CCOCC3)nc(N3CCOCC3)n2)cn1 [Buparlisib (BKM-120)]
3. C[C@@H]1COCCN1c1cc(-c2ccnn2C)c2ccnc(-c3ccn[nH]3)c2n1
4. O=c1cc(-c2cccc3c2Sc2ccccc2S3)oc(N2CCOCC2)c1
5. O=C(Nc1c[nH]nc1-c1nc2ccc(CN3CCOCC3)cc2[nH]1)NC1CC1 [AT9283]
6. CC[C@@]1(O)C(=O)OCc2c1cc1n(c2=O)Cc2cc3c(CN(C)C)c(O)ccc3nc2-1 [Topotecan HCl]
7. O=C(c1cc(Cc2n[nH]c(=O)c3ccccc23)ccc1F)N1CCN(C(=O)C2CC2)CC1 [Olaparib]
8. CCN(CCO)CCCOc1ccc2c(Nc3cc(CC(=O)Nc4cccc(F)c4)[nH]n3)ncnc2c1 [AZD1152-HQPA (Barasertib)]

0.44
0.772
0.696
0.972
0.799
0.0567
0.967
0.964
